# Tested on: LACV
# protocol: Antiviral efficacy against LACV in N2a cells, virus titer by plaque assay
# Format: cell-based
# experimental_setup: La Crosse virus, LACV 0.1 MOI, 24 hpi, read-out: EC50 (50% reduction in virus titer)
reported_endpoint: EC50
Express your answer as a number followed by its unit.

Consider the following illustrative entries.
{"columns": ["compound", "assayed_target", "result"],
 "data": [
  ["NC(=O)c1ncn([C@@H]2O[C@H](CO)[C@@H](O)[C@H]2O)n1", "LACV", "3.8 µM"],
  ["NC(=O)c1nc(F)c[nH]c1=O", "LACV", "30.1 µM"]
]}

Query compound follows.
Documented EC50 of O=c1nc(NO)ccn1[C@@H]1O[C@H](CO)[C@@H](O)[C@H]1O [NHC, N^4-hydroxycytidine] : 1.5 µM
